method_notes: MM1S myeloma cell viability, profiling panel, resazurin fluorescence, basal, 24 h, PK04 Diversity Set (AID 1174);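 further: MM1S multiple myeloma cell line; test concentration not given here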
condition_notes: higher = more signal, called active from +8 up or from −8 down
Calls of active or inactive are those of the source.
quantity: z-score

Sample answers from the record:
Fill in: z-score of [N-]=[N+]=Nc1ccccc1C[C@@]1(C(=O)NCC(O)CO)N=C(c2ccc(OCCCO)cc2)O[C@@H]1c1ccccc1N=[N+]=[N-] (stereo partly drawn) is ___ -2.42 (inactive)

Next entry: O=C(NCCN1CCOCC1)[C@@H]1c2ccccc2C(=O)N(CC23CC4CC(CC(C4)C2)C3)[C@H]1c1ccc(CO)cc1 0.631 (inactive)

Likewise for CCN1C(=O)C2CC(=O)C3C(CN(S(=O)(=O)c4ccc(C)cc4)C3c3ccc(C)cc3)C2C1=O (stereo not drawn) ? -0.631 (inactive)

Item: CN(C)C(=O)[C@]1(CCS(=O)(=O)c2ccccc2)N=C(c2ccc(OCCCO)cc2)O[C@@H]1c1ccccc1CN=[N+]=[N-] 0.273 (inactive)

What do you get for C=C[C@H](OC)[C@@H](O)c1ccc(OC)c(O)c1 ? 0.546 (inactive)

Request: C=C(C(=O)CC[C@@H](OC(=O)c1ccccc1-c1ccccc1C(=O)O)c1cccc(OCCO)c1)C(C)C 1 (inactive)

More entries:
Can you look up the measured z-score of CO[C@H]1O[C@H](CO)[C@@H](OC(=O)Nc2cccc(F)c2)[C@H](OC(=O)Nc2ccc3c(c2)OCO3)[C@@H]1OC(=O)Nc1ccc2c(c1)OCO2 for me? -1 (inactive)

Now the molecule O=C1C[C@@](C(=O)NCC(F)(F)F)(c2ccc([N+](=O)[O-])cc2)[C@@H](c2ccc(CO)cc2I)N1CC12CC3CC(CC(C3)C1)C2 -7.22 (inactive)

---

system_name: E3 ubiquitin-protein ligase XIAP (Homo sapiens)
method_notes: XIAP binders, primary screen, biophysical, small-molecule microarray, fluorescence 635 nm (AID 1181);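 further: score merges 667 nm emission and signal to noise over triplicate slides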
condition_notes: small-molecule microarray binding, higher = more signal
Listing of entries alongside the reported composite z-score.
Lab note: write the figure by itself, no unit.

Worked examples, 3 compounds total:
Find the recorded composite z-score belonging to O=C/C=C/c1ccc(-c2ccccc2)cc1 and report it. 0.0097

Further, for CC(C)N1C(=O)[C@@]2(Cc3ccccc31)c1ccccc1C(=O)N(Cc1ccccc1C(F)(F)F)[C@H]2c1ccc(CO)cc1 ? 0.0377

Another compound to look at: CCOC(=O)C[C@H]1[C@H](OC(=O)Cc2ccc3c(c2)OCO3)[C@@H](NC(=O)CC(C)C)c2cc(OCCCO)ccc2N1C(=O)c1ccc2ccccc2n1 0.514

Please turn your attention to the following entry.
Would you kindly share the measured composite z-score for COC(=O)[C@@]1(Cc2ccc(F)cc2)[C@H]2c3cc(C(=O)N(C)C)n(Cc4ccc(C(F)(F)F)nc4)c3C[C@H]2CN1C(=O)c1ccccc1 ? 0.109

---

method_notes: basal 3T3-L1 adipocyte mitochondrial potential changes, profiling panel, cell-based, JC-1 fluorescence, 3T3-L1 adipocytes, 24 h, 100 nL compound (AID 1168); further: test concentration not given here
condition_notes: JC-1 mitochondrial fluorescence, higher = more signal, called active from +8 up or from −8 down
# label = met if z-score >= 0.3 else not met

Before answering, review these 6 worked examples.
Hi, just wondering whether CCCCCCCCCCC(O)C1C=CC2C(=O)N(C)C(=O)C2N1Nc1ccccc1 (configuration not stated) shows z-score of 0.3 or higher. not met

# iterate: O=C(N1CCOCC1)[C@]1(CCS(=O)(=O)c2ccccc2)N=C(c2ccc(OCCCO)cc2)O[C@@H]1c1ccccc1 met

Now consider COc1cccc(C)c1NC(=O)O[C@H]1[C@H](OC(=O)Nc2ccccc2-c2ccccc2)[C@@H](OC(=O)Nc2ccccc2-c2ccccc2)[C@@H](OC)O[C@@H]1CO . met

Similarly, C=CCOC(=O)[C@H]1[C@@H]2C(=O)O[C@@H](c3ccccc3)[C@@H](c3ccccc3)N2[C@@H](c2ccc(OCCOC(=O)[C@@H]3C[C@@H]4C(=O)N[C@@H](Cc5ccccc5)C(=O)N4[C@@H]3c3ccc(O)cc3)cc2)[C@]12C(=O)Nc1ccc(I)cc12 ? met

Then this compound: Cc1ccc(N2C(=O)c3ccccc3[C@@H](C(=O)NCCN3CCOCC3)[C@@H]2c2ccc(CO)cc2)nc1 not met

// repeat for CCCCCCc1nc(-c2ccc(OC)nc2)c(C)c2c1[Si](C(C)C)(C(C)C)OC2 and report not met

Attention now shifts to the item below.
Quick check: does COc1ccc([Si](C)(C)[C@H]2[C@H](CC(=O)N3CCC[C@H]3CO)O[C@@]3(C(=O)N(C)c4ccccc43)[C@@H]2C)cc1 have z-score greater than or equal to 0.3? not met
